molecular target: Concanavalin-A (Canavalia ensiformis); assay: compounds binding concanavalin A lectin – biochemical, small-molecule microarray, Alexa647 label, 635 nm, artefact control for SMM control protein annotation, primary screen (AID 1127); conditions: ConA-A647 binding fluorescence, higher = more signal;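 note: z combines 667 nm emission intensity with signal-to-noise across three replicate slides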

compound: CC(C)C[C@H]1NC(=O)C([C@@H](C)OCc2ccccc2)NC(=O)[C@@]23C(=O)N[C@@H](Cc4ccccc4)C2[C@H](C)[C@@]2(C)O[C@H]2C3/C=C/C/C=C\CNC1=O (stereo partly drawn)
composite z-score: 0.234
//
compound: OCCCC1=CC(c2ccc(CN3CCCC3)cc2)N(Cc2cccc(OC(F)(F)F)c2)CC1 (stereo not drawn)
composite z-score: -0.796
//
compound: C=CC1c2cc(O)c(OC)cc2CCN1C (stereo not drawn)
composite z-score: -1.24
//
compound: C=C1C(=O)C=C2CN(C(=O)c3ccccc3)[C@@](Cc3ccc(OC)cc3)(C(=O)OC)[C@@H]12
composite z-score: 1.14
//
compound: O=C1[C@H]2C=C(I)[C@H](C[C@@H]2OCCCCCCO)[C@@]12CO2
composite z-score: -1.05
//
compound: CC(C)NC(=O)[C@@]1(c2ccc([N+](=O)[O-])cc2)CC(=O)N(CC23CC4CC(CC(C4)C2)C3)[C@@H]1c1ccc(CO)cc1
composite z-score: 1.12
//
compound: COC(=O)C(CC#Cc1ccc2c(c1)[C@]1(C(=O)N2)[C@H](c2ccccc2OCCO)N2[C@H](c3ccccc3)[C@H](c3ccccc3)OC(=O)[C@H]2[C@@H]1C(=O)N1CCc2cc(OC)c(OC)cc2C1)C(=O)OC
composite z-score: 0.914
//
compound: CN(C)c1ccc(C(O)C2C=CC3C(=O)N(Cc4ccccc4)C(=O)C3N2n2cnnc2)cc1 (stereo not drawn)
composite z-score: -0.46

###

biological target: Torsin-1A-interacting protein 2 (Homo sapiens); test: small molecules binding lysate-expressed LULL1 – cell lysate, human LULL1 lysate, 635/667 nm fluorescence, primary screen (AID 1092); details: small-molecule microarray, hLULL1 lysate binding, 635 nm fluorescence; higher = more signal;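 note: probe is lysate of COS7 cells overexpressing human LULL1; score merges per-feature 667 nm fluorescence with signal-to-noise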
Measured composite z-score of individual entries

compound: COc1cc(C(O)C2C=CC3C(=O)N(c4ccccc4)C(=O)C3N2Nc2ccccc2F)cc(OC)c1OC (stereo not drawn)
composite z-score: 3.58
--
compound: COc1cc(C(O)C2C=CC3C(=O)N(c4ccccc4)C(=O)C3N2Nc2ccccc2)cc(OC)c1OC (stereo not drawn)
composite z-score: 3.71
--
compound: CCCC=C(CCC)[C@@H](NC(=O)c1ccc(C(F)(F)F)cc1)c1ccc(C(F)(F)F)cc1
composite z-score: 3.26
--
compound: COC(=O)[C@@]1(Cc2ccccc2)[C@H]2c3cc(C(=O)N(C)C)n(Cc4ccc(S(C)(=O)=O)cc4)c3C[C@H]2CN1C(=O)c1ccccc1
composite z-score: 3.51
--
compound: CCOC(=O)C1=CC[C@@H](c2ccc(OC)cc2)N(S(=O)(=O)c2ccc(C)cc2)[C@H]1CC
composite z-score: 3.05
--
compound: COCCOC(=O)N1C(=O)[C@@]2(c3cc(C#CCC(C(=O)OC)C(=O)OC)ccc31)[C@H](C(=O)Nc1nc3ccccc3s1)[C@H]1C(=O)O[C@H](c3ccccc3)[C@H](c3ccccc3)N1[C@@H]2c1ccc(OCCO)cc1
composite z-score: 1.43
--
compound: CC1CC/C=C\[C@H]2OC34C=CCN(C(C)(C)C)C(=O)[C@H]3N(CCCO)C(=O)[C@@H]4C2C(=O)O1 (stereo partly drawn)
composite z-score: 1.86
--
compound: COC(=O)[C@@]1(Cc2ccc(OC)cc2)[C@H]2c3cc(C(=O)N4CCCC4)n(Cc4c(CO)[nH]cc(C)c4=O)c3C[C@H]2CN1C(=O)c1ccccc1
composite z-score: 3.35
--
compound: CC(C)N1C(=O)C[C@@](C(=O)NCCN2CCOCC2)(c2ccc([N+](=O)[O-])cc2)[C@H]1c1ccc(CO)cc1
composite z-score: 3.61
--
compound: CCOC(=O)C1=CCC(c2cc3ccccc3[nH]2)N(CCN2CC(C(=O)OCC)=CCC2c2cc3ccccc3[nH]2)C1 (stereo not drawn)
composite z-score: 3.38
--
compound: CCCC=C(CCC)[C@@H](NC(=O)OCC(C)C)c1ccc(C(=O)OC)cc1
composite z-score: 0.893
--
compound: COCCCNC(=O)[C@@H]1c2ccccc2C(=O)N(Cc2ccc(OC(F)(F)F)cc2)[C@H]1c1ccc(CO)cc1
composite z-score: 2.36
--
compound: C=CCOC(=O)[C@@H]1[C@H]2C(=O)O[C@H](c3ccccc3)[C@H](c3ccccc3)N2[C@H](c2ccc(OCCOC(=O)[C@H]3C[C@H]4C(=O)N5CCC[C@H]5C(=O)N4[C@H]3c3cccc(OCCO)c3)cc2)[C@@]12C(=O)Nc1ccc(I)cc12
composite z-score: 1.6
--
compound: COc1ccc([Si](C)(C)[C@H]2[C@H](CCO)O[C@@]3(C(=O)N(Cc4cccc(N(C=O)c5ccccc5)c4)c4ccccc43)[C@@H]2C)cc1
composite z-score: 2.91
--
compound: CCCCC(O)C1C=CC2C(=O)N(c3ccccc3)C(=O)C2N1Nc1ccccc1 (stereo not drawn)
composite z-score: 2.93
--
compound: C=C(CCCC)/C(=C/C[C@H](OC(=O)c1ccncc1)c1cccc(OCCO)c1)c1cnc2ccccc2c1
composite z-score: 2.52
--
compound: NC(=O)N1C(=O)C2C(C1=O)C1C=C(CCCO)C2C(c2ccc(CN3CCCC3)cc2)N1Cc1cc2c(cc1Br)OCO2 (stereo not drawn)
composite z-score: 0.835
--
compound: C[N+](C)(C)CCCC[C@@H]1NC(=O)[C@H]2C[C@@H](C(=O)NCCCCCNC(=O)CS)[C@@H](c3cccc(OCCO)c3)N2C1=O
composite z-score: 1.36
--
compound: COc1ccc([Si](C)(C)[C@@H]2[C@@H](CC(=O)N3CCC[C@H]3CO)O[C@]3(C(=O)N(Cc4ccc(N5CCOC5=O)cc4)c4ccccc43)[C@H]2C)cc1
composite z-score: 2.72
--
compound: CC(C)=CCCC(C)=CC(O)C1C=CC2C(=O)NC(=O)C2N1Nc1ccc(Cl)cc1Cl (stereo not drawn)
composite z-score: 2.31
--
compound: C=CC[C@@]1(C(=O)OC)N=C(c2ccc(OCCCO)cc2)O[C@@H]1c1ccccc1N=[N+]=[N-]
composite z-score: 3.05
--
compound: O=C1NC(=O)C2C1C=CC(C(O)c1ccc([N+](=O)[O-])cc1)N2Nc1ccccn1 (stereo not drawn)
composite z-score: 0.307
--
compound: CN(C)CCCC[C@@H]1NC(=O)[C@H]2C[C@@H](C(=O)O)[C@@H](c3ccc(O)cc3)N2C1=O
composite z-score: 4.23
--
compound: C#CCN1[C@@H](Cc2ccccc2)C(=O)O[C@H](Cc2ccccc2)[C@@H]1/C=C/C1CC1
composite z-score: 1.14
--
compound: C=CCC(OC(C)=O)[C@@H]1[C@@H](N(Cc2cccc3ccccc23)C(=O)c2ccc(-c3ccccc3)cc2)c2cc(OCCCO)ccc2N1C(=O)Cc1ccc2ccccc2c1 (stereo partly drawn)
composite z-score: 0.893
--
compound: COC(=O)[C@@]1(Cc2ccc(F)cc2)[C@H]2c3cc(C(=O)N(C)C)n(CCc4ccc(O)c(O)c4)c3C[C@H]2CN1C(=O)c1ccccc1
composite z-score: 2.56
--
compound: CC(=O)NCCCC[C@@H]1NC(=O)[C@H]2C[C@@H](C(=O)NCCCCCCNC(=O)CS)[C@@H](c3cccc(OCCO)c3)N2C1=O
composite z-score: 2.65
--
compound: C=CCC(OC(C)=O)[C@@H]1[C@@H](N(Cc2ccc(-c3ccccc3)cc2)C(=O)c2cccc3ccccc23)c2cc(OCCCO)ccc2N1C(=O)Cc1ccc(OC)cc1 (stereo partly drawn)
composite z-score: -0.203
